Biological target: T1, human PCSK9 (self-cleaved, mature, secreted PCSK9 comprising amino acids 31 to 692 of SEQ ID NO: 2) (human, UniProt Q8NBP7 31-692, biotinylated in the ELISAs)
T1 construct: Limits 31-692 are stated for the immunogen; the assays only say human PCSK9; also called huPCSK9; rhu PCSK9
Test: SPR pH 7.4;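 note: antibodies captured as ligand on the sensor surface, five analyte concentrations injected with buffer blanks, double-referenced data fit to a 1:1 binding model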
So basically, if Kd comes in under 0.3 nM it's t, and if it's 0.3 nM or more it's f.

Previously resolved entries follow.
Binder: SS-15087 (antibody, V domains shown) VH: EVQLVESGGGLVKPGGSLRLSCAASGFTFSSYSMNWVRQAPGKGLEWVSSISSSSSYISYADSVKGRFTISRDNAKNSLYLQMNSLRAEDTAVYFCARDYDFHSAHYDAFDVWGQGTMVTVSS VL: ESVLTQPPSVSGAPGQRVTISCTGSSSNIGAGYDVHWYQQLPGTAPKLLISGNSNRPSGVPDRFSGSKSGTSASLAITGLQAEDEADYYCQSYDSSLHGSVFGGGTKLTVLG
Classification: t
//
Binder: SS-15141 (antibody, V domains shown, 31H4 His variant: HC 73(63), 132(106), parental(113H)) VH: EVQLVESGGGLVKPGGSLRLSCAASGFTFSSYSMNWVRQAPGKGLEWVSSISSSSSYISYADHVKGRFTISRDNAKNSLYLQMNSLRAEDTAVYFCARDYDFHSAHYDAFDVWGQGTMVTVSS VL: ESVLTQPPSVSGAPGQRVTISCTGSSSNIGAGYDVHWYQQLPGTAPKLLISGNSNRPSGVPDRFSGSKSGTSASLAITGLQAEDEADYYCQSYDSSLSGSVFGGGTKLTVLG
Classification: t
//
Binder: SS-15124 (antibody, V domains shown, 31H4 His variant: HC 66(56), 70(60), parental(113H)) VH: EVQLVESGGGLVKPGGSLRLSCAASGFTFSSYSMNWVRQAPGKGLEWVSSISSSSHYISHADSVKGRFTISRDNAKNSLYLQMNSLRAEDTAVYFCARDYDFHSAYYDAFDVWGQGTMVTVSS VL: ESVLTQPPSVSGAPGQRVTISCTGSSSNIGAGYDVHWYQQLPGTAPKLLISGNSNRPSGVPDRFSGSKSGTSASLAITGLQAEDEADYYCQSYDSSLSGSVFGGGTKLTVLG
Classification: f
//
Binder: SS-15121 (antibody, V domains shown, 31H4 His variant: HC 61(54), 132(106), parental(113H); parental LC) VH: EVQLVESGGGLVKPGGSLRLSCAASGFTFSSYSMNWVRQAPGKGLEWVSSISSHSSYISYADSVKGRFTISRDNAKNSLYLQMNSLRAEDTAVYFCARDYDFHSAHYDAFDVWGQGTMVTVSS VL: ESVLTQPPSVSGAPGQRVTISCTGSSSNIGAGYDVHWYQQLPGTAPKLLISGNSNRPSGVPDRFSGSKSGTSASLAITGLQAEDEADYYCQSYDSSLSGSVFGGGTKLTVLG
Classification: f

## Input Dear reviewer, please state whether SS-15126 (antibody, V domains shown, 31H4 His variant: HC 66(56), 73(63), parental(113H)) VH: EVQLVESGGGLVKPGGSLRLSCAASGFTFSSYSMNWVRQAPGKGLEWVSSISSSSHYISYADHVKGRFTISRDNAKNSLYLQMNSLRAEDTAVYFCARDYDFHSAYYDAFDVWGQGTMVTVSS VL: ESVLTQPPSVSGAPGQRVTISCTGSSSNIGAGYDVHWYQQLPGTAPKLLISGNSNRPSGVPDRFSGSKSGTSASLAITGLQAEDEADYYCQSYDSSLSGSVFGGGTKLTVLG has Kd strictly beneath 0.3 nM.
## Output t
